target: Cholecystokinin receptor type A (Homo sapiens); assay: Displacement of [3H]L-364718 from human recombinant CCK1 receptor expressed in PC3 cells; format: cell-based, PC-3
The molecules listed here are annotated with their pKi.
By convention, pKi is the negative base-10 log of a molar concentration.

SMILES RECORD | pKi
CN(c1cccc(NC(=O)CN2N=C(C3CCCCC3)c3ccccc3N(CC(=O)C(C)(C)C)C2=O)c1)c1nn[nH]n1 | 5.19
CC(C)(C)C(=O)CN1C(=O)N(CC(=O)Nc2cccc(NCC(=O)O)c2)N=C(C2CCCCC2)c2ccccc21 | 5.07
CC(C)CC1=NN(CC(=O)Nc2cccc(C(=O)O)c2)C(=O)N(CC(=O)C(C)(C)C)c2ccccc21 | 5.15
CC(C)(C)C(=O)CN1C(=O)N(CC(=O)Nc2cccc(SCC(=O)O)c2)N=C(C2CCCCC2)c2ccccc21 | 6.19
CC(C)(C)C(=O)CN1C(=O)N(CC(=O)Nc2cccc(OCC(=O)O)c2)N=C(C2CCCCC2)c2ccccc21 | 5.39
CC(C)(C)C(=O)CN1C(=O)N(CC(=O)Nc2cccc(C(=O)O)c2)N=C(C2CCCCCC2)c2ccccc21 | 5.24
CC(C)(C)C(=O)CN1C(=O)N(CC(=O)Nc2cccc(C(=O)O)c2)N=C(C23CC4CC(CC(C4)C2)C3)c2ccccc21 | 6.43
O=C(CN1N=C(C2CCCCC2)c2ccccc2N(CC(=O)C23CC4CC(CC(C4)C2)C3)C1=O)Nc1cccc(C(=O)O)c1 | 5.72

Now consider a different molecule.
Ask | Request: pKi, test system Cholecystokinin receptor type A (Homo sapiens), entry CC(C)(C)C(=O)CN1C(=O)N(CC(=O)Nc2cccc(C(=O)NS(C)(=O)=O)c2)N=C(C2CCCCC2)c2ccccc21
Reply | 5.53

* * *

Biological target: Cholecystokinin receptor type A (Homo sapiens, UniProt P32238)
Sequence (P32238 whole entry): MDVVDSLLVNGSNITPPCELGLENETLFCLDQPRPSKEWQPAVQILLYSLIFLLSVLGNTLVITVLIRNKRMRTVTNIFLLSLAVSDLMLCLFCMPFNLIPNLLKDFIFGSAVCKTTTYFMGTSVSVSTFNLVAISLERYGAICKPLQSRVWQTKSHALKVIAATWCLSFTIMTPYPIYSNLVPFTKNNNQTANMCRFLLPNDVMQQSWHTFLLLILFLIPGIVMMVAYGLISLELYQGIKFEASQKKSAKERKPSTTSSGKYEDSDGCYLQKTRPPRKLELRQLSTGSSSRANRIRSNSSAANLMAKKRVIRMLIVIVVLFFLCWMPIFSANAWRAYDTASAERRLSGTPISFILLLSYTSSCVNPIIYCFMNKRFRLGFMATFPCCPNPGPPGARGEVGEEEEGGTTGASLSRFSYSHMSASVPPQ
Test: Displacement of [3H]L-364718 from human recombinant CCK1 receptor expressed in CHOK1 cells
Type: cell-based, CHO-K1
RECORDED ENDPOINT: Ki (nM)
# value in nM; strip the unit string

SMILES RECORD | READOUT UNITS | Ki
CC(C)(C)C(=O)CN1C(=O)N(CC(=O)Nc2cccc(-c3cccc(C(=O)O)c3)c2)N=C(C2CCCCC2)c2ccccc21 | nM | 550
O=C(O)CCc1cccc(NC(=O)CN2N=C(C3CCCCC3)c3ccccc3N(CC(=O)C3CCCC3)C2=O)c1 | nM | 2510
CC(C)(C)C(=O)CN1C(=O)N(CC(=O)Nc2cccc(SCc3nn[nH]n3)c2)N=C(C2CCCCC2)c2ccccc21 | nM | 389
CC(C)(C)C(=O)CN1C(=O)N(CC(=O)Nc2ccc3ccn(CC(=O)O)c3c2)N=C(C2CCCCC2)c2ccccc21 | nM | 550

Now consider a different compound.
Ask | Reported Ki for CC(C)(C)C(=O)CN1C(=O)N(CC(=O)Nc2cccc(-c3nn[nH]n3)c2)N=C(C2CCCCC2)c2ccccc21 : what is it?
Reply | 1740
